studySystem: HLA-DR DRB1*0101 (DR1) (Homo sapiens, UniProt P01903+P01911, A100R/D57E/F55L/F60I/F76Y/I96L/L162R/M171V/P40L/Q125E/R42F/V115G/Y59C)
assayMethodText: biochemical
Type: binding
experimentalSetup: DRB1 *0101
Overview of recorded pIC50 for various compounds
API: returns pIC50 as number; meaning -log10 of concentration in mol/L.

CC[C@H](C)[C@H](NC(=O)[C@@H](N)CCC(N)=O)C(=O)N[C@@H](Cc1ccc(O)cc1)C(=O)N[C@H](C(=O)N[C@@H](C)C(=O)N[C@@H](C)C(=O)N[C@@H](Cc1ccccc1)C(=O)N[C@H](C(=O)N[C@H](C(=O)N[C@@H](CCC(N)=O)C(=O)N[C@@H](C)C(=O)N[C@@H](C)C(=O)N[C@@H](C)C(=O)N[C@@H](CCC(=O)O)C(=O)N[C@H](C(=O)O)[C@@H](C)O)C(C)C)[C@@H](C)O)C(C)C | 8.80
CC[C@H](C)[C@H](NC(=O)CNC(=O)[C@H](Cc1ccc(O)cc1)NC(=O)[C@H](CC(C)C)NC(=O)[C@H](CO)NC(=O)[C@H](CC(C)C)NC(=O)[C@H](CC(C)C)NC(=O)[C@H](CO)NC(=O)[C@H](CC(C)C)NC(=O)[C@H](CCC(=O)O)NC(=O)[C@H](CO)NC(=O)[C@@H](N)CC(C)C)C(=O)N[C@@H](Cc1c[nH]cn1)C(=O)N[C@@H](CCCCN)C(=O)N[C@@H](CCC(N)=O)C(=O)O | 6.32

Consider now this further compound.
stdin: Reported pIC50, compound "CC[C@H](C)[C@H](NC(=O)[C@H](CCCCN)NC(=O)[C@H](C)NC(=O)[C@@H]1CCCN1C(=O)[C@H](CCC(=O)O)NC(=O)[C@H](CO)NC(=O)[C@H](CC(C)C)NC(=O)[C@H](CCCNC(=N)N)NC(=O)[C@H](CC(C)C)NC(=O)[C@H](CC(C)C)NC(=O)[C@H](CCSC)NC(=O)[C@H](CC(C)C)NC(=O)[C@H](CC(=O)O)NC(=O)[C@@H](N)Cc1c[nH]cn1)C(=O)N[C@H](C(=O)O)[C@@H](C)O" : ____
stdout: 7.80
